FYI, the data here is from patent US4294841A.

Experiment: acute toxicity in the mouse per os
Parameters: species or system Charles River)
Conditions: in vivo, po, male CD1 mouse, 3 days of observation

| molecule | LD50 at 72 h / mg/kg |
| --- | --- |
| Clc1ccc(CCCC2CCNCC2)cc1Cl [Example 9] | 600 |
| COc1ccc(C(=O)CCC2CCNCC2)cc1 [Example 19] | 200 |
| Cc1ccc(CCCC2CCNCC2)cc1 [Example 10, 4-[3-(4-Methylphenyl)1-propyl]piperidine] | 400 |
| COc1ccc(C(O)CCC2CCNCC2)cc1 (centres unmarked) [Example 22] | 800 |
| COc1ccc(CCCC2CCNCC2)cc1 [Example 6] | 400 |
| c1ccc(CCCC2CCNCC2)cc1 [Example 16, 4-[3-(phenyl)propyl]piperidine] | 200 |
| Fc1ccc(CCCC2CCNCC2)cc1 [Example 7, 4-[3-(4-Fluorophenyl)1-propyl]piperidine] | 225 |
| Clc1ccc(CCCC2CCNCC2)cc1 [Example 8, 4-[3-(4-Chlorophenyl)1-propyl]piperidine] | 235 |
